tested on: OVCAR-8 ovarian; test: NCI tumour cell line growth inhibition, 48 h
Reported endpoint: TGI

Compound	Reported endpoint	Endpoint result
COc1cc[c]([Sn]([c]2ccc(OC)cc2)([c]2ccc(OC)cc2)[c]2ccc(OC)cc2)cc1	TGI	> 100 µM
O=C1N/C(=N\N=C\c2ccccc2)C(c2ccccc2)O1 (stereo not given)	TGI	> 100 µM
O=C1OC(c2ccccc2)=NC1c1ccccc1 (stereo not given)	TGI	> 100 µM
O=C1C(c2ccccc2)=C(c2ccccc2)C(c2ccc(Cc3ccc(C4=C(c5ccccc5)C(=O)C(c5ccccc5)=C4c4ccccc4)cc3)cc2)=C1c1ccccc1	TGI	> 100 µM
COc1cc(OC2OC(CO)C(O)C(O)C2O)c2c(O)c3c(=O)cc(C)oc3cc2c1 (stereo not given)	TGI	> 100 µM

Please supply TGI for each of the following items, keeping them in order.
1. CC1CC2C3CCC4=CC(=O)C=CC4(C)C3(F)C(O)CC2(C)C1(O)C(=O)COP(=O)(O)O (stereo not given)
2. COc1cccc(/C=C/C(=O)c2ccc3cc(OC)ccc3c2)c1
3. COc1ccc(N2C(=O)c3c(c4[nH]c5ccccc5c4c4ccc(C(C)(C)C)cc34)C2=O)cc1
4. N#CC(NNC(=O)Cc1ccccc1)c1cccc(O)c1 (stereo not given)
5. O=C1NC(=NCc2ccccc2Cl)S/C1=C\c1ccc2ncccc2c1

["> 500 µM", "33.3 µM", "63.6 µM", "> 100 µM", "> 25 µM"]

----------
system: SK-MEL-5 melanoma; test: NCI tumour cell line growth inhibition, 48 h
Provide the reported TGI of each item.
Numbers only, in µM.

Would you please look over these solved cases?
Compound	Unit info	TGI
Nc1nc(Nc2ccc(Cl)c(Cl)c2)nc2nc[nH]c12	µM	27.7
CN(C)c1ccc(/C=C/C(=O)c2ccc(O)cc2)cc1	µM	23.3
CN1CCN(CC(=O)N(C)c2ccc(N=C(c3ccccc3)c3c(O)[nH]c4ccc(C#N)cc34)cc2)CC1	µM	3.16

Please supply TGI for each of the following items, keeping them in order.
1. O=C1Nc2ccc(Br)cc2C12CC(c1ccccc1)=NN2 (stereo unspecified)
2. CCN1CCN(c2nc(C)cc(N(CCCNc3ccnc4cc(Cl)ccc34)Cc3ccc4c(c3)OCO4)n2)CC1
3. CCOC(=O)[C@@H](C)C[C@H](Cc1ccccc1)NC(=O)c1csc([C@@H](C[C@H](C(C)C)N(C)C(=O)[C@@H](NC(=O)[C@H]2CCCCN2C)C(C)(C)CC)OC(C)=O)n1

1: 14.1; 2: 3.05; 3: 0.0294

----------
system: HT29 colon; test: NCI tumour cell line growth inhibition, 48 h
Provide the reported GI50 of each item.

Would you please look over these solved cases?
Chemical string	GI50
Cc1cc(=O)oc2ccc(OC/C=C3\CCC(=O)O3)cc12	3620 nM
CC(=O)Nc1ccc(C(=O)CCl)cc1	2450 nM
COc1cc(-c2cc(/C=C/C(=O)c3ccc(F)c(F)c3)[nH]n2)cc(OC)c1OC	2620 nM

Please supply GI50 for each of the following items, keeping them in order.
1. c1ccc(-c2oc(-c3ccccc3)c(CN3CCCCC3)c2CN2CCCCC2)cc1
2. CN=C(N)c1ccc(N=C(N)c2ccc(-c3ccc(C(N)=Nc4ccc(C(N)=NC)cc4)cc3)cc2)cc1

["1270 nM", "62800 nM"]

----------
system: HCT-116 colon; experiment: NCI tumour cell line growth inhibition, 48 h; in the data active = GI50 below about 0.43 µM; inactive = the rest
Outcomes you can answer with include only these: class 1 = active, class 0 = inactive

Please review the entries below; each comes with its answer.
Chemical string	Category label
CSc1ccc(C2=C(c3ccccc3)C(=O)OC2)cc1	class 0
Clc1nccc2c(-c3csc(-c4c[nH]c5ccc(Br)cc45)n3)c[nH]c12	class 0
COc1cc([N+](=O)[O-])c(OC)cc1-c1nc2sc(C)c(C)n2c1/C(N)=N/C(=N)N	class 0
CN=C(N)c1ccc(N=C(N)c2ccc(-c3ccc(C(N)=Nc4ccc(C(N)=NC)cc4)cc3)cc2)cc1	class 0
CCOC(=O)c1c(-c2ccccc2)[n+](=O)c2cc(Cl)c(Cl)cc2n1[O-]	class 0
NC(N)=N/N=C/c1c(-c2ccsc2)nc2n1CCS2	class 0
Cc1cc(=O)oc2ccc(OC/C=C3\CCC(=O)O3)cc12	class 0
CN(C)c1ccc(/C=C\c2ccnc3ccccc23)cc1	class 0

Dear all, I need the recorded test outcome for COc1cc[c]([Sn]([c]2ccc(OC)cc2)([c]2ccc(OC)cc2)[c]2ccc(OC)cc2)cc1 , thank you.
class 0

Dear all, I need the recorded test outcome for C=C1C(=O)O[C@H]2[C@H]1CC/C(COC(=O)c1cc(OC)c(OC)c(OC)c1)=C\CC[C@@]1(C)O[C@@H]21 , thank you.
class 1

----------
test system: A549 NSCLC; assay: NCI tumour cell line growth inhibition, 48 h
Provide the reported TGI of each item.

Molecule	Tested on	TGI
Cc1ccc(NC(=O)CCc2nc(=S)[nH][nH]2)cc1	A549 NSCLC	> 100 µM
C[C@H]1CC[P+](Cc2ccccc2)(c2ccccc2)C1 (stereo not given in full)	A549 NSCLC	> 100 µM
CC(=O)OI1NC(=O)c2ccccc21	A549 NSCLC	> 100 µM

Please supply TGI for each of the following items, keeping them in order.
1. COc1ccc(-c2cc(-c3ccc(Nc4nc(Nc5ccccc5)nc(Nc5ccc(Cl)cc5)n4)cc3)nc(N)n2)cc1
2. CCOC(=O)C(C)(NC(=O)c1ccc(NCc2ccc3nc(NC(=O)c4ccccc4)nc(NC(=O)c4ccccc4)c3c2)cc1)C(=O)OCC

1. > 50 µM
2. 35.2 µM

----------
system: SK-MEL-28 melanoma; assay: NCI tumour cell line growth inhibition, 48 h
Provide the reported TGI of each item.

Would you please look over these solved cases?
Molecule	Tested on	Reported endpoint	Endpoint result
O=c1[nH]nc(Cc2ccccc2)n1/N=C/c1cccs1	SK-MEL-28 melanoma	TGI	> 100 µM
FC(F)(F)c1ccc(C2ON=C(c3ccccc3)N2C23CC4CC(CC(C4)C2)C3)cc1 (configuration not stated)	SK-MEL-28 melanoma	TGI	> 10 µM
Nc1nncc2c1c(Br)cn2C1OC(CO)C(O)C1O (configuration not stated)	SK-MEL-28 melanoma	TGI	> 100 µM
O=C(O)C1=C/C(=C(/c2ccccc2)c2cc(C(=O)O)c(O)c3ccccc23)c2ccccc2C1=O	SK-MEL-28 melanoma	TGI	> 100 µM
CSc1ncnc2c1cnn2Cc1cn(COCCO)nn1	SK-MEL-28 melanoma	TGI	> 100 µM

Please supply TGI for each of the following items, keeping them in order.
1. Cc1cc(=O)oc2ccc(OC/C=C3\CCC(=O)O3)cc12
2. CC1(C)CCN2C(=O)C34CCCC3CC21S4 (configuration not stated)
3. CC1=C(c2nc3ccccc3s2)C(=O)OC1(C)C
4. Cc1ccc(NC(=O)CCc2nc(=S)[nH][nH]2)cc1

23.5 µM
> 100 µM
> 100 µM
> 100 µM

Please supply TGI for each of the following items, keeping them in order.
1. O=C(Nc1ccc(Oc2ccc(F)cc2)cc1)[C@@H]1C[C@@H](Cc2ccc(F)cc2)CN1C(=O)Cn1ccnn1
2. Cc1ccc(CNc2ccc(Br)cc2)cc1
3. Brc1ccc(C2C3CSc4ccccc4C3=NN2c2ccccc2)cc1 (configuration not stated)

1: 20.6 µM; 2: > 100 µM; 3: > 100 µM

----------
test system: HCC-2998 colon; test: NCI tumour cell line growth inhibition, 48 h
Provide the reported TGI of each item.

Would you please look over these solved cases?
Compound	TGI
COc1cc(CNCCCCCCN2C(=O)c3cccc4cccc(c34)C2=O)ccc1O	24.6 µM
CC1=NN=C(C)C1N=Nc1ccc2nc(C)[nH]c2c1	> 100 µM
COc1ccc(-n2c(CCC(=O)O)nc3c2C(=O)c2ccccc2C3=O)cc1	> 100 µM
FC(F)(F)c1ccc(C2ON=C(c3ccccc3)N2C23CC4CC(CC(C4)C2)C3)cc1 (stereo unspecified)	> 10 µM
O=S1(=O)N2CN3CN(C2)CN1C3	571 µM

Please supply TGI for each of the following items, keeping them in order.
1. CC(=O)Nc1[nH]n(C)c(=O)c1-c1nnc(C)s1
2. COc1ccc(C(O)c2cc3c(N)c(C(=O)Nc4ccc(Cl)cc4)sc3nc2C)cc1 (stereo unspecified)
3. O=NN1C(c2ccccc2)CNC(=O)CC1c1ccccc1 (stereo unspecified)
4. Nc1nc2c(N)cc(C(F)(F)F)cc2nc1-c1ccccc1
5. O=C1CN(c2ccccc2)Cc2nc(Cl)ccc2N1
6. O=c1[nH]/c(=C/c2ccc3c(c2)OCO3)c(=O)[nH]/c1=C/c1ccc2c(c1)OCO2

1: > 100 µM; 2: 20.8 µM; 3: > 100 µM; 4: > 100 µM; 5: > 100 µM; 6: > 10 µM

----------
system: A549 NSCLC; assay: NCI tumour cell line growth inhibition, 48 h; in the data active means GI50 below about 0.43 µM; inactive means the rest
Outcomes you can answer with include only these: true (1) = active, false (0) = inactive

Please review the entries below; each comes with its answer.
Chemical string	Category label
COc1cnc2c(c1)C(=O)c1c-2n(CCCNC2=NCCS2)c(=O)c2cc(F)ccc12	true (1)
COc1cc([N+](=O)[O-])c(OC)cc1-c1nc2sc(C)c(C)n2c1/C(N)=N/C(=N)N	false (0)
COc1cc2oc(-c3cccc(C(=O)Nc4ccc(Cl)cc4)c3)cc(=O)c2c(OC)c1OC	false (0)
COc1cc2cc(Oc3ccc(NC(=O)Nc4cc(C(F)(F)F)cc(C(F)(F)F)c4)cc3)c(C)nc2cc1OCCN1CCOCC1	false (0)
COc1cc(/C=C/C(=O)c2cccc(-n3cc(-c4cc(OC)c(OC)c(OC)c4)[nH]c3=O)c2)cc(OC)c1OC	false (0)

Dear all, I need the recorded test outcome for Cc1cc(=O)oc2ccc(OC/C=C3\CCC(=O)O3)cc12 , thank you.
false (0)

Dear all, I need the recorded test outcome for COc1cccc(/C=C/C(=O)c2ccc3cc(OC)ccc3c2)c1 , thank you.
false (0)
